Target: UniProt Q8VGX8
Sequence (Q8VGX8 as listed by the source): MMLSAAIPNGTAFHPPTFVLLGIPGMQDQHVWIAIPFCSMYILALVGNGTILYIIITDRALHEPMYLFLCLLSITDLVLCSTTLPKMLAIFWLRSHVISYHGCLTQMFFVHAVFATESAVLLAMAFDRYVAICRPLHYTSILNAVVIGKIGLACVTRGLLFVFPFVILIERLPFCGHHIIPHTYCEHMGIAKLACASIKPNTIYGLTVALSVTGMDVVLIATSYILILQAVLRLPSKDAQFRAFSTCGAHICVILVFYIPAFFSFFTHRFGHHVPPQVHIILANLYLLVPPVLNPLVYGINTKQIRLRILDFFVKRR
Settings: stereoisomer not certain
Your reply should match one of these outcome classes. active, inactive

Consider the worked cases shown below.
[[record]]
structure_notation = "CCCCCCCCC(=O)O"
qualitative_label = "active"

[[record]]
structure_notation = "CCCCCCOC(C)=O"
qualitative_label = "inactive"


Read the next record carefully.
Test call, this molecule: "O=C([O-])CCCCC(=O)[O-].[H+].[H+]"
inactive

----------
Biological target: OR1A1 (Homo sapiens)
Sequence (whole entry): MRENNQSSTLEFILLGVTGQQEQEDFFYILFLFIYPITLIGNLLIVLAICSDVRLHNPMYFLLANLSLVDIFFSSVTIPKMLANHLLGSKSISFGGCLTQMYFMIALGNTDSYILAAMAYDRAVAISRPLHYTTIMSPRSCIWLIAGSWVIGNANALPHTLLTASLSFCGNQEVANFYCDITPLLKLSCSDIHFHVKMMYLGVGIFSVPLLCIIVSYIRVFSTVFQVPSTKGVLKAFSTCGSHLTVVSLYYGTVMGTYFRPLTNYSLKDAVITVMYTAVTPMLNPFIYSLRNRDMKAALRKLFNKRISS
Conditions: stereoisomer not certain
Your answer must be one of the following: class 1 = active, class 0 = inactive

[[record]]
compound = "CCCCS"
study_target = "OR1A1 (Homo sapiens)"
qualitative_label = "class 0"

[[record]]
compound = "CC=CC(=O)C(C)CC (centres undefined)"
study_target = "OR1A1 (Homo sapiens)"
qualitative_label = "class 0"

[[record]]
compound = "CCc1cccc(O)c1"
study_target = "OR1A1 (Homo sapiens)"
qualitative_label = "class 0"


Okay, next one:
Would you mind telling me which call this test gave C=C1CCC2(C(C)C)CC12 (centres undefined) ?
class 0

----------
Biological target: UniProt Q8VF24
Sequence (whole entry): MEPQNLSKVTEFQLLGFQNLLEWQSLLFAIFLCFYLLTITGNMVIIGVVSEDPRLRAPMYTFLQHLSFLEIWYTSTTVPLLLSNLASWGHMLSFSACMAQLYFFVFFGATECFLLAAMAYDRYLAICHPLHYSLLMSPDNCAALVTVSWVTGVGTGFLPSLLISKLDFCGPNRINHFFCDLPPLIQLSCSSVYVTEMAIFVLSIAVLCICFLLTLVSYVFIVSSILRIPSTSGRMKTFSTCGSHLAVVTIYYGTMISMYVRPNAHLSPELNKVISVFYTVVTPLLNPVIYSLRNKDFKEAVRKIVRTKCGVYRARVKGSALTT
Settings: stereoisomer not certain
Can you answer with just one of these options? TRUE (active), FALSE (inactive)

[[record]]
compound = "CC12CCC(CC1=O)C2(C)C (stereo not drawn)"
qualitative_label = "TRUE"

[[record]]
compound = "O=C1Cc2ccccc2O1"
qualitative_label = "FALSE"

[[record]]
compound = "O=C(c1ccccc1)c1ccccc1"
qualitative_label = "FALSE"

[[record]]
compound = "CCOC(=O)C(C)C"
qualitative_label = "FALSE"

[[record]]
compound = "CCC(=O)C(=O)CC"
qualitative_label = "FALSE"

[[record]]
compound = "CC(C)=CCCC(C)CCO (stereo not drawn)"
qualitative_label = "FALSE"

[[record]]
compound = "CC(=O)OCC=C(C)C"
qualitative_label = "FALSE"

[[record]]
compound = "CCCCOC(=O)C(C)OC(=O)CCC (stereo not drawn)"
qualitative_label = "FALSE"

[[record]]
compound = "CCC(C(=O)O)c1ccccc1 (stereo not drawn)"
qualitative_label = "FALSE"

[[record]]
compound = "CCCCCOC(=O)CCCCC"
qualitative_label = "FALSE"


Outcome logged for "CCCCCCC(C)=O" in this assay:
FALSE

Per the records of this test, what outcome belongs to "CCCCCCC(=O)[O-].[H+]" ?
FALSE

Query: recorded result category for "CCCCCO" in this test
FALSE
